Test: qHTS for small molecule inhibitors of Yes1 kinase: Counter Assay (AID 686950);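 also: no kinase present so only ADP-Glo detection of a fixed ADP amount is tested; luminescence from ADP-Glo reporting ADP in a fixed ATP and ADP mixture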
Conditions: series mostly up to 76.9 µM
Text: The Src family of non-receptor protein tyrosine kinases contains nine members, including Yes1, Src, Fyn, Lyn, and […]. These kinases have important roles in a variety of cellular functions, such as cell proliferation, survival, and differentiation. […] Two microliter of buffer (columns 1-48) are dispensed into Greiner, white solid-bottom 1536-well assay plates. […] The amount of ADP is then quantified by the ADP-Glo Kit (Promega, Madison, WI). […]
Activity calls are given as the source filed them. Calls follow the shape of the dose curve; as a rule, active = well fitted curve in the direction sought with a large enough effect; inactive = no such curve, though single readings can be large or run the other way.

# structure.notation, outcome
measured = [
    ("COc1cccc(Nc2nccc(-c3cnn4ncccc34)n2)c1", "inactive"),
    ("COc1cc2ncn(-c3cc(OCc4cccs4)c(C(N)=O)s3)c2cc1OC", "inactive"),
    ("Nc1nc(-c2ccc3c(c2)C(=Cc2cc(Br)c(O)c(Br)c2)C(=O)N3)cs1", "inactive"),
    ("Cc1ccc(C(=O)NC2CCCCC2)cc1-c1ccc(C(=O)NCC2CC2)cc1", "inactive"),
    ("COc1cc(Nc2nccc(-c3cnn4ncccc34)n2)cc(OC)c1", "inactive"),
    ("NS(=O)(=O)c1ccc(-c2ccc3c(NC(=O)C4CC4)n[nH]c3c2)cc1", "inactive"),
    ("Cc1ccc2[nH]c(O)c(N=Nc3ccc(S(N)(=O)=O)cc3)c2c1", "inactive"),
    ("c1cnn2ncc(-c3ccnc(NCCCN4CCOCC4)n3)c2c1", "inactive"),
    ("CN(C)CCCn1c(-c2nonc2N)nc2cnccc21", "inactive"),
]

---

molecular target: Cytochrome P450 3A4 (Homo sapiens) (UniProt P08684); test: qHTS Assay for Inhibitors and Substrates of Cytochrome P450 3A4 (AID 884); conditions: recombinant CYP3A4, Luciferin-PPXE luminescence; series mostly up to 57.1 µM; also: potency is read from the fitted curve at half-maximal effect; nearly all actives have a fitted effect of over 50% in size
Sequence (P08684 whole entry, looked up): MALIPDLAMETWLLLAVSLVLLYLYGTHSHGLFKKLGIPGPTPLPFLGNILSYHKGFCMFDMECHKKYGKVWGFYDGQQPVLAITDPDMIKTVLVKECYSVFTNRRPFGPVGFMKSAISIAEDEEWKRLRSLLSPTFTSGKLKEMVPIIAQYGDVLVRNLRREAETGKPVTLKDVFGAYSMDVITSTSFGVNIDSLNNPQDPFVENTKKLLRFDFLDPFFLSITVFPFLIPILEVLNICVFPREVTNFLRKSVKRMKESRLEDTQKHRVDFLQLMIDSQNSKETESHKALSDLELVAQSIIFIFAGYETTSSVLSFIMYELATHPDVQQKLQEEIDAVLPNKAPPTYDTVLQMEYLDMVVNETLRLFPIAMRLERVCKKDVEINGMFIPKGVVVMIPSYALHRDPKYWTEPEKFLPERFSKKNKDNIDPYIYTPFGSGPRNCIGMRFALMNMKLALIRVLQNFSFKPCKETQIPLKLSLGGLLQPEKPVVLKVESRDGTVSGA
Results filed as inconclusive are left out. Active and inactive are the calls of the source. Calls follow the shape of the dose curve; as a rule, active = well fitted inhibition curve with a large enough effect; inconclusive = small, poorly fitted or top-dose-only effect; inactive = no such curve, though single readings can be large or run the other way.
readout.kind: Potency

# compound, readout.kind, value.observed
measured = [
    ("CO[C@H]1COC(=O)[C@H](C)NC(=O)C/C=C\\[C@@H](C)[C@@H](NS(=O)(=O)c2ccc(C)cc2)COC(=O)C/C=C\\[C@@H]1C", "Potency", "3980 nM (active)"),
    ("COC(=O)c1ccc(C(/C=C/[C@@H](C)C(=O)NCc2cc(C)n(C)n2)NC(=O)OCc2ccccc2)cc1 (some centres undefined)", "Potency", "2000 nM (active)"),
    ("COCC#Cc1ccc(C2C(C)CCC3C(=O)N4C(CCC(C)C4c4ccc(C#CCOC)cc4)C(=O)N32)cc1 (centres undefined)", "Potency", "1260 nM (active)"),
    ("COC(=O)c1ccc(C(NC(=O)OCc2ccccc2)/C(C)=C/[C@@H](C)C(=O)N(C)Cc2cccnc2)cc1 (some centres undefined)", "Potency", "794 nM (active)"),
]

---

target: Cytochrome P450 3A4 (Homo sapiens) (UniProt P08684); assay: qHTS Assay for Inhibitors and Substrates of Cytochrome P450 3A4 (AID 884); conditions: recombinant CYP3A4, Luciferin-PPXE luminescence; series mostly up to 57.1 µM; also: potency is read from the fitted curve at half-maximal effect; nearly all actives have a fitted effect of over 50% in size
Records with an inconclusive call do not appear. The source made the active and inactive calls. Calls come from the whole dose curve; as a rule, active = well fitted inhibition curve with a large enough effect; inconclusive = small, poorly fitted or top-dose-only effect; inactive = no such curve, though single readings can be large or run the other way.
Catalogue of Potency readings, one per entry.
readout.kind: Potency

# structure.notation, value.observed
data = [
    ("COc1ccc(/C=C/N(CCc2ccc(OC)c(OC)c2)C(=O)c2ccccn2)cc1", "3.98 µM (active)"),
    ("COC(=O)[C@@H]1C[C@H]2CC[C@H](O)C[C@H]2N1Cc1ccc(C(C)(C)C)cc1", "5.01 µM (active)"),
    ("COc1ccc(O[C@H]2C=C[C@@H](c3ccccc3)O[C@H]2COC(=O)CC/C(C)=N\\O[C@@H](C)c2cn([C@H]3COC[C@H]3O)nn2)cc1", "3.98 µM (active)"),
    ("CCCNC(=O)OC[C@@H]1O[C@H](CCO/N=C\\[C@@H](C)[C@H](OCc2ccccc2)C(C)C)C=C[C@@H]1Oc1ccc(OC)cc1", "3.98 µM (active)"),
]
